Source: patent US20040180051A1

- Subject of test: T1, human tissue factor (human TF) on human bladder carcinoma cells J82 (human, UniProt P13726 33-295)
- T1 construct: whole, on cells; Target of the cell ELISA; also called the antigen
- Experiment description: cell ELISA on fixed J82 cells;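 note: measures antigen binding in a cell ELISA on J82 cells grown one day in 96-well plates and fixed with 4% paraformaldehyde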

| Binder | binding result |
| --- | --- |
| H chain humanized version i/L chain humanized version b2 antibody (antibody, V domains shown, also called i-b2) VH: QVQLLESGAVLARPGTSVKISCKASGFNIKDYYMHWVKQRPGQGLEWIGGNDPANGHSMYDPKFQGRVTITADTSTSTVFMELSSLRSEDTAVYYCARDSGYAMDYWGQGTLVTVSS VL: DIQMTQSPSSLSASVGDRVTITCKASQDIKSFLSWYQQKPEKAPKSLIYYATSLADGVPSRFSGSGSGTDYTLTISSLQPEDFATYYCLQHGESPYTFGGGTKVEIK | binds |
